# test-system: hSTING-R232 (aa140-379) (Homo sapiens, UniProt Q86WV6, H232R)
# Sequence (Q86WV6 140-379 H232R): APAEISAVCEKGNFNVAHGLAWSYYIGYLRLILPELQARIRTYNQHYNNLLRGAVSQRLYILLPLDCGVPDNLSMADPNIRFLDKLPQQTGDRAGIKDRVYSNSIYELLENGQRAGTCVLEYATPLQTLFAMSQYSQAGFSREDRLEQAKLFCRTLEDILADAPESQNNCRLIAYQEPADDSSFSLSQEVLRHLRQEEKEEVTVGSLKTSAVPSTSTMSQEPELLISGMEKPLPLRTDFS
# protocol: STING differential scanning fluorimetry (DSF) assay, hSTING WT
# test-context: shift in melting temperature apo vs ligand-bound
reported-metric: WT_DSF_hSWAT Tm Shift (° C.)

CC(C)Nc1cc2c(cc1Cl)c(=O)c1ccc(Cl)c(N(C)C)c1n2CC(=O)O = D (“D” >7° C.)
CN(C)c1c(Cl)ccc2c(=O)c3ccc(-c4ccnnc4)cc3n(CC(=O)O)c12 = D (“D” >7° C.)
CN(C)c1c(Cl)ccc2c(=O)c3ccc(Nc4cccnc4)cc3n(CC(=O)O)c12 = D (“D” >7° C.)
CC(C)c1ccc2c(=O)c3ccc(Cl)c(N(C)C)c3n(CC(=O)O)c2c1 = D (“D” >7° C.)
Cc1ccc2c(=O)c3ccc(Cl)c(C(C)C)c3n(CC(=O)O)c2c1 = D (“D” >7° C.)

Given the compound CCc1c(Cl)ccc2c(=O)c3ccc(C)cc3n(CC(=O)O)c12 , write its reported WT_DSF_hSWAT Tm Shift (° C.).
D (“D” >7° C.)

Given the compound Cc1ccc2c(=O)c3ccc(Cl)c(N4CCCC4)c3n(CC(=O)O)c2c1 , write its reported WT_DSF_hSWAT Tm Shift (° C.).
D (“D” >7° C.)

Given the compound CC/C=C(\CC)c1ccc2c(=O)c3ccc(Cl)c(OC)c3n(CC(=O)O)c2c1 , write its reported WT_DSF_hSWAT Tm Shift (° C.).
D (“D” >7° C.)

Given the compound CN(C)c1c(Cl)ccc2c(=O)c3cc(Cl)c(Nc4ccccc4)cc3n(CC(=O)O)c12 , write its reported WT_DSF_hSWAT Tm Shift (° C.).
D (“D” >7° C.)

Given the compound CN(C)c1c(Cl)ccc2c(=O)c3ccc(C(C)(C)C)cc3n(CC(=O)NS(C)(=O)=O)c12 , write its reported WT_DSF_hSWAT Tm Shift (° C.).
D (“D” >7° C.)

====

# test-system: hSTING-R232 (aa140-379) (Homo sapiens, UniProt Q86WV6, H232R)
# protocol: STING differential scanning fluorimetry (DSF) assay, hSTING WT
# test-context: shift in melting temperature apo vs ligand-bound
reported-metric: WT_DSF_hSWAT Tm Shift (° C.)

Consider the following illustrative entries.
C=Cc1c(Cl)ccc2c(=O)c3ccc(C)cc3n(CC(=O)O)c12 = D (“D” >7° C.)
CN(C)c1c(Cl)ccc2c1N(CC(=O)O)c1cc(Nc3ccccc3F)ccc1N2C = D (“D” >7° C.)
COc1c(Cl)ccc2c(=O)c3cccc(OCCO)c3n(CC(=O)O)c12 = B (“B” = 0-2° C.)
Cc1ccc2c(=O)c3c(O)cc(Cl)c(N(C)C)c3n(CC(=O)O)c2c1 = D (“D” >7° C.)
CN(C)c1c(Cl)ccc2c(=O)c3ccc(-n4cccn4)cc3n(CC(=O)O)c12 = D (“D” >7° C.)
CN(C)c1c(Cl)ccc2c(=O)c3ccc(Nc4c(F)cccc4F)cc3n(CC(=O)O)c12 = D (“D” >7° C.)

In the following, a different compound is considered.
Given the compound COc1ccccc1Nc1ccc2c(=O)c3ccc(Cl)c(N(C)C)c3n(CC(=O)O)c2c1 , write its reported WT_DSF_hSWAT Tm Shift (° C.).
D (“D” >7° C.)
